Measured values drawn from paper PMC8998827 for this set.

Study Target: hGSTM1-1 (Homo sapiens)
Sequence (P09488 whole entry): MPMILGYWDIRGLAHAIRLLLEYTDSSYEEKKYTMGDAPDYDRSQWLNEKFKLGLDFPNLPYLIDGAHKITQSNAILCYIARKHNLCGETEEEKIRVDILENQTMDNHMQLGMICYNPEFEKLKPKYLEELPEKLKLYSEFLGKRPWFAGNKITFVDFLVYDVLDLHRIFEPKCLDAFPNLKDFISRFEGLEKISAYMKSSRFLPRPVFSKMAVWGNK
Quantity Measured: Kd (µM)
I only need the number, in µM, no unit after it.

Problem: Notebook: pull reported Kd for hGSTM1-1 (Homo sapiens), entry Cc1nc(N(C)C)nc(OC(=O)N(C)C)c1C [Pirimicarb, pirimicarb]
Result: 15.5

---

Study Target: hGSTM1-1 (Homo sapiens)
Protocol Details: IC50 determination, concentration-response in CDNB-GSH assay
Type: biochemical
Design: made in house; host or cells: E. coli
Quantity Measured: pIC50
# log scale: pIC50 equals minus log10 of the concentration in mol/L

Problem: Value lookup for pIC50; key = Cc1nc(N(C)C)nc(OC(=O)N(C)C)c1C
Result: 4.76
